Origin of the recorded values: ChEMBL document CHEMBL1157456

tested on: Staphylococcus aureus; test: Antibacterial activity against methicillin-resistant Staphylococcus aureus ATCC 43300 after 24 hrs by serial dilution method; type: functional; details: ATCC 43300, 24 h
assay_endpoint: MIC (µg/mL)
Report only the number, with the unit µg/mL understood.

MIC measured on `CCCCSSc1ccc([N+](=O)[O-])cc1` = 32

MIC measured on `CC1(C)S[C@@H]2[C@H](NC(=O)Cc3ccccc3)C(=O)N2[C@H]1C(=O)O` = 64

MIC measured on `CCSSc1ccc([N+](=O)[O-])cc1` = 16

MIC measured on `CC(C)SSc1cccc([N+](=O)[O-])c1` = 16

MIC measured on CCC(C)SSc1cccc([N+](=O)[O-])c1 (stereo not given) = 32

MIC measured on CCC(C)SSc1ccc([N+](=O)[O-])cc1 (stereo not given) = 1

MIC measured on `CCSSc1cccc([N+](=O)[O-])c1` = 64

MIC measured on `CSSc1cccc([N+](=O)[O-])c1` = 64

MIC measured on `CC(C)SSc1ccccc1[N+](=O)[O-]` = 32

MIC measured on `CCCSSc1ccc([N+](=O)[O-])cc1` = 16

MIC measured on `CSSc1ccc([N+](=O)[O-])cc1` = 32

MIC measured on `CCSSc1ccccc1[N+](=O)[O-]` = 32

MIC measured on `CSSc1ccccc1[N+](=O)[O-]` = 32

MIC measured on CCC(C)SSc1ccccc1[N+](=O)[O-] (stereo not given) = 32

###

test: Inhibition of Escherichia coli FabH
assay_endpoint: pIC50
Scale for pIC50: -log10 of concentration given in mol/L; no unit attached.

pIC50 measured on `CSSCCNC(=O)CCNC(=O)[C@@H](O)C(C)(C)COP(=O)(O)OP(=O)(O)OC[C@H]1O[C@@H](n2cnc3c(N)ncnc32)[C@H](O)[C@@H]1OP(=O)(O)O` = 4.24

###

system: Staphylococcus aureus; experiment: Antibacterial activity against Staphylococcus aureus ATCC 25923 after 24 hrs by serial dilution method; format: functional; conditions: ATCC 25923, 24 h
assay_endpoint: MIC (µg/mL)
Report only the number, with the unit µg/mL understood.

MIC measured on CCC(C)SSc1cccc([N+](=O)[O-])c1 (stereo unspecified) = 8

MIC measured on `CCSSc1ccccc1[N+](=O)[O-]` = 16

MIC measured on CN[C@H](CC(C)C)C(=O)N[C@H]1C(=O)N[C@@H](CC(N)=O)C(=O)N[C@H]2C(=O)N[C@H]3C(=O)N[C@H](C(=O)N[C@H](C(=O)O)c4cc(O)cc(O)c4-c4cc3ccc4O)[C@H](O)c3ccc(c(Cl)c3)Oc3cc2cc(c3O[C@@H]2O[C@H](CO)[C@@H](O)[C@H](O)[C@H]2O[C@H]2C[C@](C)(N)[C@H](O)[C@H](C)O2)Oc2ccc(cc2Cl)[C@H]1O [VANCOMYCIN] = 0.25

MIC measured on `CSSc1cccc([N+](=O)[O-])c1` = 16

MIC measured on `CSSc1ccc([N+](=O)[O-])cc1` = 16

MIC measured on `CCCSSc1ccc([N+](=O)[O-])cc1` = 16

MIC measured on CCC(C)SSc1ccc([N+](=O)[O-])cc1 (stereo unspecified) = 0.8

MIC measured on `CCSSc1cccc([N+](=O)[O-])c1` = 8

MIC measured on CC1(C)S[C@@H]2[C@H](NC(=O)Cc3ccccc3)C(=O)N2[C@H]1C(=O)O [PENICILLIN G] = 0.03

MIC measured on CCC(C)SSc1ccccc1[N+](=O)[O-] (stereo unspecified) = 32

MIC measured on `CC(C)SSc1ccccc1[N+](=O)[O-]` = 16

MIC measured on `CCSSc1ccc([N+](=O)[O-])cc1` = 1

MIC measured on `CSSc1ccccc1[N+](=O)[O-]` = 16

MIC measured on `CCCCSSc1ccc([N+](=O)[O-])cc1` = 1

###

test system: Escherichia coli; experiment: Inhibition of purified Escherichia coli FabH at 5 uM by trichloroacetic acid precipitation assay relative to control
assay_endpoint: inhibition
Form field: result (number plus unit)

inhibition measured on `CCCSSc1ccc([N+](=O)[O-])cc1` = 91%

inhibition measured on `CC(C)SSc1ccc([N+](=O)[O-])cc1` = 98.5%

inhibition measured on `CSSc1ccc([N+](=O)[O-])cc1` = 94%

inhibition measured on CCC(C)SSc1ccc([N+](=O)[O-])cc1 (stereo unspecified) = 96%

inhibition measured on `CCSSc1ccc([N+](=O)[O-])cc1` = 98%

inhibition measured on `CCCCSSc1ccc([N+](=O)[O-])cc1` = 93%
